Cited source: patent US8211429

Target: human NRP1 (human, UniProt O14786)
Assay: SPR 25C
property: Kd (nM)

| binder | property | unit | data.value |
| --- | --- | --- | --- |
| YW107.4 (antibody, V domains shown) VH: EVQLVESGGGLVQPGGSLRLSCAASGFTFSSYAMSWVRQAPGKGLEWVSQISPAGGYTNYADSVKGRFTISADTSKNTAYLQMNSLRAEDTAVYYCARELPYYRMSKVMDVWGQGTLVTVSS VL: DIQMTQSPSSLSASVGDRVTITCRASQSISSYLAWYQQKPGKAPKLLIYGASSRASGVPSRFSGSGSGTDFTLTISSLQPEDFATYYCQQYYSSPLTFGQGTKVEIKR | Kd | nM | 5 |
| YW107.4.18 (antibody, V domains shown) VH: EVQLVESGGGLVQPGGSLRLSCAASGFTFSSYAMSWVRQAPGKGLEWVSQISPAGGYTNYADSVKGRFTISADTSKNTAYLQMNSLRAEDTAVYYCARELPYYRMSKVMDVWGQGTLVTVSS VL: DIQMTQSPSSLSASVGDRVTITCRASQYFSSYLAWYQQKPGKAPKLLIYGASTHESGVPSRFSGSGSGTDFTLTISSLQPEDFATYYCQQYIRSPLTFGQGTKVEIKR | Kd | nM | 1 |
| YW107.4.63 (antibody, V domains shown) VH: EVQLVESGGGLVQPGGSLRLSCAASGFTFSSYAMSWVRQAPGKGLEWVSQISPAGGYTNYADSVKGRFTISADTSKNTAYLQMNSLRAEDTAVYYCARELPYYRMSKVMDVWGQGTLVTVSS VL: DIQMTQSPSSLSASVGDRVTITCRASQYLSSYLAWYQQKPGKAPKLLIYGASSSESGVPSRFSGSGSGTDFTLTISSLQPEDFATYYCQQYISVPLTFGQGTKVEIKR | Kd | nM | 0.8 |
| YW107.4.52 (antibody, V domains shown) VH: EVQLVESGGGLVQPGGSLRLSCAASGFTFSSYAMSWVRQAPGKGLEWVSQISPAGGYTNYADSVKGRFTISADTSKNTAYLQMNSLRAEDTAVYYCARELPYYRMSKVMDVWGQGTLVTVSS VL: DIQMTQSPSSLSASVGDRVTITCRASQYFSSYLAWYQQKPGKAPKLLIYGASTLASGVPSRFSGSGSGTDFTLTISSLQPEDFATYYCQQYIRSPLTFGQGTKVEIKR | Kd | nM | 0.9 |
| YW107.4.76a (antibody, V domains shown) VH: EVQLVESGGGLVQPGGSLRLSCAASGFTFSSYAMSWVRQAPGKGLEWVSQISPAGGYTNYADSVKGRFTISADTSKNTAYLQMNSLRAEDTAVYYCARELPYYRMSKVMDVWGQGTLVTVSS VL: DIQMTQSPSSLSASVGDRVTITCRASQYISSYLAWYQQKPGKAPKLLIYGASRRASGVPSRFSGSGSGTDFTLTISSLQPEDFATYYCQQYLRSPHTFGQGTKVEIKR | Kd | nM | 1.4 |
| YW107.4.38 (antibody, V domains shown) VH: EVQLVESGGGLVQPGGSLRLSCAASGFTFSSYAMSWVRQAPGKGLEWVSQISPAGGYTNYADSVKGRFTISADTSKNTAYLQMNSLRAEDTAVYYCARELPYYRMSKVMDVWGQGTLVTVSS VL: DIQMTQSPSSLSASVGDRVTITCRASQYLSSYLAWYQQKPGKAPKLLIYGASSRASGVPSRFSGSGSGTDFTLTISSLQPEDFATYYCQQYLRSPITFGQGTKVEIKR | Kd | nM | 1.8 |
